Reference for the values: patent EP4745135A1

Molecular target: human Cereblon WT GST-tagged protein (Homo sapiens)
Construct: purchased CISBIO 64BDCRBNPEH
Sequence (Q96SW2 whole entry): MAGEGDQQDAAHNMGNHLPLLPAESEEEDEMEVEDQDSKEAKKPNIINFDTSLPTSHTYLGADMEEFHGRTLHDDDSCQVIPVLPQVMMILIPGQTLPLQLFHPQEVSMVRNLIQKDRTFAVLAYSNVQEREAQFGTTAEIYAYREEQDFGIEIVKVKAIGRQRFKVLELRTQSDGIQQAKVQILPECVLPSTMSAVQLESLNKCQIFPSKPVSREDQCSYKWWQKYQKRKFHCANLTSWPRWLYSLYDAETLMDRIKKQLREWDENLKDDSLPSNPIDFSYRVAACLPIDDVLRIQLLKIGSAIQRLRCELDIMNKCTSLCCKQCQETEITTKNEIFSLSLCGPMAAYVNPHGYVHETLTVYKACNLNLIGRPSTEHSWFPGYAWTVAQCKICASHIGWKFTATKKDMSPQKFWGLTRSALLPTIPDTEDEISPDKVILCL
Test: CRBN-binding affinity, HTRF (CEREBLON BINDING kit)
Conditions: read-out: Inhibition Rate at 0.5 µM (%)
Procedure: The CEREBLON BINDING kits (specification: 10,000 tests; product number: Catalog # 64BDCRBNPEH; CISBIO company) was used to determine the CRBN binding ability of the compounds to be tested through a HTRF method (homogeneous time-resolved fluorescence). The specific methods are as follows: • 1. […] Specifically, diluent #9 (1X) solution was used as the diluent, and multiple concentration gradients were set. […] Then, 2.5 µL of human Cereblon WT GST-tagged protein solution was added to each well. […]
measured-quantity: inhibition at 0.5 µM

Consider the worked cases shown below.
# molecule, study-system, inhibition at 0.5 µM
records = [
    ("O=C1CCC(N2Cc3c(CN4CCN(c5ncnc6scc(-c7ccccc7)c56)CC4)cccc3C2=S)C(=O)N1 (centres unmarked) [GT-08920]", "human Cereblon WT GST-tagged protein (Homo sapiens)", "40 to 53%"),
    ("O=C1CCC(N2Cc3c(CN4CCC(n5c(=O)[nH]c6cc(F)ccc65)CC4)cccc3C2=S)C(=O)N1 (centres unmarked) [GT-08843]", "human Cereblon WT GST-tagged protein (Homo sapiens)", "60 to 80%"),
    ("O=C1CCC(N2Cc3c(CN4CC=C(c5ncnc6sc7c(c56)CCC7)CC4)cccc3C2=S)C(=O)N1 (centres unmarked) [GT-08963]", "human Cereblon WT GST-tagged protein (Homo sapiens)", "60 to 80%"),
]

## Task Request the reported inhibition at 0.5 µM associated with CC1(C)CCC(CN2C3CC2CN(Cc2cccc4c2CN(C2CCC(=O)NC2=O)C4=S)C3)=C(c2ccc(Cl)cc2)C1 (centres unmarked) [GT-08271]
## Result 30 to 40%

## Task Recorded inhibition at 0.5 µM of O=C1CCC(N2Cc3c(CN4CC(n5cnc6cc(F)ccc65)C4)cccc3C2=S)C(=O)N1 (centres unmarked) [GT-08861] , please.
## Result 40 to 53%

## Task I have this molecule here, O=C1CCC(N2Cc3cc(CN4CCC(c5ccoc5)CC4)ccc3C2=S)C(=O)N1 (centres unmarked) [GT-08326] , and I need its recorded inhibition at 0.5 µM.
## Result 40 to 53%

## Task Which inhibition at 0.5 µM reading was recorded for the molecule Cc1csc2ncnc(C3=CCN(Cc4ccc5c(c4)CN(C4CCC(=O)NC4=O)C5=S)CC3)c12 (centres unmarked) [GT-09315] ?
## Result 60 to 80%

## Task For the molecule shown here, O=C1CCC(N2Cc3c(CN4CCN(c5ccncc5F)CC4)cccc3C2=S)C(=O)N1 (centres unmarked) [GT-08730] , give the reported inhibition at 0.5 µM.
## Result 60 to 80%

## Task Bench note: what inhibition at 0.5 µM did Cc1nc(C2=CCN(Cc3ccc4c(c3)CN(C3CCC(=O)NC3=O)C4=S)CC2)c2ccsc2n1 (centres unmarked) [GT-09322] show?
## Result 60 to 80%

## Task // inhibition at 0.5 µM lookup, key: O=C1CCC(N2Cc3c(CN4CCN(C(c5ccccn5)c5ccccn5)CC4)cccc3C2=S)C(=O)N1 (centres unmarked) [GT-08201]
## Result 40 to 53%
